- method summary: Isothermal titration calorimeter (ITC), binding of Gd^3+ to ligand
- measurement context: 25° C., pH = 4.5, read-out: Kd (dissociation constant)
pKd: −log10 of the molar value.
quantity kind: pKd

                                   compound  quantity_kind  numeric_value
0  CCOC(=O)C1CCC(CNC(=O)CN2CCN(CC(=O)O)CCN(CC(=O)O)CCN(CC(=O)O)CC2)CC1 (stereo not shown) [1a]            pKd           4.72
1  NC1CCC(NC(=O)CN2CCN(CC(=O)O)CCN(CC(=O)O)CCN(CC(=O)O)CC2)CC1 (stereo not shown) [1d]            pKd           4.53
2  O=C(O)CN1CCN(CC(=O)O)CCN(CC(=O)NCC2CCC(C(=O)O)CC2)CCN(CC(=O)O)CC1 (stereo not shown) [1b]            pKd           5.40
3  NCCNC(=O)C1CCC(CNC(=O)CN2CCN(CC(=O)O)CCN(CC(=O)O)CCN(CC(=O)O)CC2)CC1 (stereo not shown) [1c]            pKd           4.78
